Value source: patent US8106050B2

- System: erk2 (Homo sapiens)
- Sequence (P28482 whole entry, species assumed): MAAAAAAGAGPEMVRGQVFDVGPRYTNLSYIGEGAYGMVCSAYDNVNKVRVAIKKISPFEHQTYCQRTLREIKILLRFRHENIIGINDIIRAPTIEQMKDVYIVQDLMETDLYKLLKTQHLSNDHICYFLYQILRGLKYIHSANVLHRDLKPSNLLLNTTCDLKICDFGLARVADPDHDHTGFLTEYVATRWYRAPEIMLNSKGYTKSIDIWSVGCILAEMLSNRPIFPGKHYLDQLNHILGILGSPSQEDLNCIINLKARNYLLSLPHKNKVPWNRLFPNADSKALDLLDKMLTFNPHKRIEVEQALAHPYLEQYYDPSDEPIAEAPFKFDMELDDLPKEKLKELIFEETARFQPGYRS
Measurement type: pIC50
Kindly note that pIC50 refers to -log10 of the concentration in mol/L and answer with the value alone.

The compound listed as CCCCc1c(-c2ccc(O)cc2)[nH]c2nccnc12 [39 (RP107)] shows pIC50 equal to 4.66

----------
Measurement type: melting point (°C)
Write the value in °C as a bare number.

The compound listed as CCCCc1c(-c2ccc(Cl)cc2)[nH]c2nccnc12 [40 (RP108)] shows melting point equal to 200

The compound listed as Cc1cnc2cc(-c3ccccc3)[nH]c2n1 [8 (RP18)] shows melting point equal to 261.8

The compound listed as COc1ccc(-c2[nH]c3nccnc3c2C)cc1 [27 (RP95)] shows melting point equal to 221.6

The compound listed as COc1cccc(-c2cc3nccnc3[nH]2)c1 [12 (RP10)] shows melting point equal to 195.7

The compound listed as c1ccc(-c2cc3nccnc3[nH]2)nc1 [4 (RP13), 6-(2-Pyridyl)[5H]pyrrolo[2,3-b]pyrazine] shows melting point equal to 233.1

The compound listed as COc1cc(OC)cc(-c2cc3nccnc3[nH]2)c1 [16 (RP21)] shows melting point equal to 216.7

The compound listed as Cc1ccc(-c2cc3nccnc3[nH]2)cc1 [24 (RP78)] shows melting point equal to 265.4

The compound listed as CC(C)c1c(-c2ccc(Cl)cc2)[nH]c2nccnc12 [37 (RP90)] shows melting point equal to 208.6

----------
- System: MAPKK
- Method notes: Kinase selectivity panel
- Protocol conditions: 15 μM ATP
pIC50: −log10 of the molar value.
Measurement type: pIC50

The molecule listed as CCCCc1c(-c2ccc(O)cc2)[nH]c2nccnc12 [39 (RP107)] shows pIC50 equal to < 4.00

----------
- System: CDK1/cyclin B
- Method notes: CDK1/cyclin B kinase assay (histone H1, 15 μM ATP)
- Protocol conditions: 15 μM ATP, Table 1
pIC50: −log10 of the molar value.
Everything with pIC50 lower than 6 is rule not met; everything else, including exactly 6, is rule met.

# Compound, Label
rows = [
    ("c1cnc2[nH]c(-c3ccsc3)cc2n1 [3 (RP128)]", "rule not met"),
    ("Cc1ccc(-c2cc3nccnc3[nH]2)cc1 [24 (RP78)]", "rule not met"),
]

QUERY: Would you say Br.CCCc1c(-c2ccc(O)cc2)[nH]c2nccnc12 [33 (RP132), hydrobromide] shows pIC50 at minimum 6?
RESULT: rule not met

QUERY: Would you say c1coc(-c2cc3nccnc3[nH]2)c1 [1 (RP19), 6-(2-Furyl)[5H]pyrrolo[2,3-b]pyrazine] shows pIC50 at minimum 6?
RESULT: rule not met

QUERY: Would you say Br.Cc1c(-c2ccc(O)cc2)[nH]c2nccnc12 [28 (RP96), hydrobromide] shows pIC50 at minimum 6?
RESULT: rule met

----------
- System: GSK-3α/β
- Method notes: GSK-3 kinase assay (GS-1 peptide, 15 μM ATP)
- Type: biochemical, porcine
- Protocol conditions: 15 μM ATP, Table 1; read-out: IC50 GSK-3
# reported IC50; entries follow
Write the value in nM as a bare number.

# Compound, System, Quantity unit, IC50
data = [
    ("COc1cc(OC)cc(-c2cc3nccnc3[nH]2)c1 [16 (RP21)]", "GSK-3α/β", "nM", 60000),
    ("CCCCc1c(-c2ccc(Cl)cc2)[nH]c2nccnc12 [40 (RP108)]", "GSK-3α/β", "nM", 5900),
    ("c1coc(-c2cc3nccnc3[nH]2)c1 [1 (RP19), 6-(2-Furyl)[5H]pyrrolo[2,3-b]pyrazine]", "GSK-3α/β", "nM", 15000),
]

The compound listed as c1ccc(-c2cc3nccnc3[nH]2)nc1 [4 (RP13), 6-(2-Pyridyl)[5H]pyrrolo[2,3-b]pyrazine] shows IC50 equal to 15000

The compound listed as Br.CCCc1c(-c2ccc(O)cc2)[nH]c2nccnc12 [33 (RP132), hydrobromide] shows IC50 equal to 1800

The compound listed as Clc1ccc(-c2[nH]c3nccnc3c2Cc2ccccc2)cc1 [45 (RP91)] shows IC50 equal to 6800

The compound listed as CC(C)c1c(-c2ccc(Cl)cc2)[nH]c2nccnc12 [37 (RP90)] shows IC50 equal to 750

The compound listed as Cc1ccc(-c2cc3nccnc3[nH]2)cc1 [24 (RP78)] shows IC50 equal to 2600

----------
- System: Insulin receptor tyrosine kinase (Homo sapiens, UniProt P06213)
- Sequence (P06213 28-1382): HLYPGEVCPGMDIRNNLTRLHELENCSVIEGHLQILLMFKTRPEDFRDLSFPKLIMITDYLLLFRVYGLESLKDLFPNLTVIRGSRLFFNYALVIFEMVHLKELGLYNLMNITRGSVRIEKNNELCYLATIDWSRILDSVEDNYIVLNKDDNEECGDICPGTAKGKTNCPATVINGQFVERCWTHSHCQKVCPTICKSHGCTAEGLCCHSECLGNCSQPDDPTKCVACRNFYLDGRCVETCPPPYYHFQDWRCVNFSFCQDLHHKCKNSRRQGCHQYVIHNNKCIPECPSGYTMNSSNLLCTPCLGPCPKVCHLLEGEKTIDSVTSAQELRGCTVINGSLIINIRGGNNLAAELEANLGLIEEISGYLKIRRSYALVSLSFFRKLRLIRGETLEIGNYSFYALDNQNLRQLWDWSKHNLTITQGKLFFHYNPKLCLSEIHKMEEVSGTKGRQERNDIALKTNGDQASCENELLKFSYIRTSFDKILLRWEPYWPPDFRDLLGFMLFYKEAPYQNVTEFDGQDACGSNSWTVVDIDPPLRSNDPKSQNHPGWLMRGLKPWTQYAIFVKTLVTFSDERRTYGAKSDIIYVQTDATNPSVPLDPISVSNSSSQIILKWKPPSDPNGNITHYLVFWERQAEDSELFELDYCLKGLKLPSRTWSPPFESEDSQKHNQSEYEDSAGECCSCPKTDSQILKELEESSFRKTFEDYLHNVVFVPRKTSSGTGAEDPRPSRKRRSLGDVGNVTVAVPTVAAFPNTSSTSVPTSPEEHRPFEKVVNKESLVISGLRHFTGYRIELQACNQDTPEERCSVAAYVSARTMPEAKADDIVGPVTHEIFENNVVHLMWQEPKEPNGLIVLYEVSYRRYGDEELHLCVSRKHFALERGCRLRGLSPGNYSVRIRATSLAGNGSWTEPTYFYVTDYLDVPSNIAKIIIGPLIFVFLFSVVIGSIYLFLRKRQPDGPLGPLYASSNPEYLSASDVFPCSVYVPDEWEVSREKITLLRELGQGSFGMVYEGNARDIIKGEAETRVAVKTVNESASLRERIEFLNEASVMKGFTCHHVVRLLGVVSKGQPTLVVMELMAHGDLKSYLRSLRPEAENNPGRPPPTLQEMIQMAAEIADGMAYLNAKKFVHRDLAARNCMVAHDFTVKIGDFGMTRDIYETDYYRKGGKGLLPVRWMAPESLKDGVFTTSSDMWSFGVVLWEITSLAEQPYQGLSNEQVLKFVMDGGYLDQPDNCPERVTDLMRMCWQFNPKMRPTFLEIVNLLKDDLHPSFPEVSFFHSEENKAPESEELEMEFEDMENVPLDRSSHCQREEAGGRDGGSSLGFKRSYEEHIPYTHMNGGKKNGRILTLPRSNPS
Measurement type: pIC50
Kindly note that pIC50 refers to -log10 of the concentration in mol/L and answer with the value alone.

CCCCc1c(-c2ccc(O)cc2)[nH]c2nccnc12 [39 (RP107)] tested on Insulin receptor tyrosine kinase (Homo sapiens, UniProt P06213) gave pIC50: 4.22

----------
- System: CDK1/cyclin B
- Method notes: CDK1/cyclin B kinase assay (histone H1, 15 μM ATP)
- Protocol conditions: 15 μM ATP, Table 1
pIC50: −log10 of the molar value.
Everything with pIC50 lower than 5 is f; everything else, including exactly 5, is t.

Below, 5 molecules whose answers are already recorded.
# Molecule, Label
records = [
    ("Clc1ccc(C2(c3cc4nccnc4[nH]3)CC2)cc1 [9 (RP124)]", "f"),
    ("C=CCc1c(-c2ccc(OC)cc2)[nH]c2nccnc12 [34 (RP110)]", "t"),
    ("c1ccc(-c2cc3nccnc3[nH]2)nc1 [4 (RP13), 6-(2-Pyridyl)[5H]pyrrolo[2,3-b]pyrazine]", "f"),
    ("FC(F)(F)c1ccc(-c2cc3nccnc3[nH]2)cc1 [22 (RP8)]", "t"),
    ("c1csc(-c2cc3nccnc3[nH]2)c1 [2 (RP6), 6-(2-Thienyl)[5H]pyrrolo[2,3-b]pyrazine]", "t"),
]

QUERY: Would you say CCCCc1c(-c2ccc(Cl)cc2)[nH]c2nccnc12 [40 (RP108)] shows pIC50 at minimum 5?
RESULT: t

QUERY: Would you say N#Cc1ccc(-c2cc3nccnc3[nH]2)cc1 [23 (RP20)] shows pIC50 at minimum 5?
RESULT: t

QUERY: Would you say c1ccc(Cc2c(-c3ccccc3)[nH]c3nccnc23)cc1 [44 (RP92)] shows pIC50 at minimum 5?
RESULT: t

QUERY: Would you say CC(C)c1c(-c2ccc(Cl)cc2)[nH]c2nccnc12 [37 (RP90)] shows pIC50 at minimum 5?
RESULT: t

----------
- System: Casein kinase 1
- Method notes: Kinase selectivity panel
- Protocol conditions: 15 μM ATP
Measurement type: IC50

The compound listed as CCCCc1c(-c2ccc(O)cc2)[nH]c2nccnc12 [39 (RP107)] shows IC50 equal to > 100 µM

----------
- System: GSK-3α/β
- Method notes: GSK-3 kinase assay (GS-1 peptide, 15 μM ATP)
- Assay type: biochemical, porcine
- Protocol conditions: 15 μM ATP, Table 1; read-out: IC50 GSK-3
Note to self: IC50 under 3000 nM means true (1), ties and anything higher get false (0).

Below, 3 compounds whose answers are already recorded.
# Compound, Label
measured = [
    ("c1ccc(-c2cc3nccnc3[nH]2)cc1 [5 (RP7), 6-Phenyl[5H]pyrrolo[2,3-b]pyrazine]", "true (1)"),
    ("CCCCc1c(-c2ccc(OC)cc2)[nH]c2nccnc12 [38 (RP106)]", "true (1)"),
    ("COc1ccc(-c2c(C)c3nccnc3n2C2CC2)cc1 [42 (RP104)]", "true (1)"),
]

Continue with the compound presented below.
QUERY: Take the compound N#Cc1ccc(-c2cc3nccnc3[nH]2)cc1 [23 (RP20)] and say whether its IC50 is less than 3000 nM.
RESULT: false (0)

----------
# reported melting point; entries follow

The compound listed as CN(C)c1ccc(-c2cc3nccnc3[nH]2)cc1 [26 (RP129)] shows melting point equal to 271 °C (dec.)

----------
- System: CDK5/p25 (Homo sapiens, UniProt Q00535)
- Sequence (Q00535 whole entry, species assumed): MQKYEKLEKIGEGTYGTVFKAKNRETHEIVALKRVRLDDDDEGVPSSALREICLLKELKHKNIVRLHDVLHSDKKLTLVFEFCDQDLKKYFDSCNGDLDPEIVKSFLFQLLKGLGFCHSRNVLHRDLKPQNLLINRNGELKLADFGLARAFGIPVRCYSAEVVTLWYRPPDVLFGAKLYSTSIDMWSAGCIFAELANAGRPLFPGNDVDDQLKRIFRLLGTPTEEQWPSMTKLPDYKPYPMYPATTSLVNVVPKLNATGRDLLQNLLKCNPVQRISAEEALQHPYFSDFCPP
- Sequence (Q15078 99-307 partner limits assumed, species assumed): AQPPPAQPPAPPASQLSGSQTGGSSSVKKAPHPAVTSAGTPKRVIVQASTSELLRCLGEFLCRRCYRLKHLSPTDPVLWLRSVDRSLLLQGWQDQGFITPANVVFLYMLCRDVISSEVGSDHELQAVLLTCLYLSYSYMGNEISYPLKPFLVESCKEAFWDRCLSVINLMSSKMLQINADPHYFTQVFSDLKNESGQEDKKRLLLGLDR
- Method notes: CDK5/p25 kinase assay (histone H1, 15 μM ATP)
- Assay type: biochemical, mammalian
- Protocol conditions: Table 1
# reported IC50; entries follow

# Compound, Result
measured = [
    ("c1ccc(-c2cc3nccnc3[nH]2)nc1 [4 (RP13), 6-(2-Pyridyl)[5H]pyrrolo[2,3-b]pyrazine]", "53 µM"),
    ("Brc1ccc(-c2cc3nccnc3[nH]2)cc1 [21 (RP77)]", "> 100 µM"),
    ("Clc1ccc(-c2[nH]c3nccnc3c2Cc2ccccc2)cc1 [45 (RP91)]", "> 100 µM"),
]

Please examine the following record next.
The compound listed as c1ccc(-c2cc3nccnc3[nH]2)cc1 [5 (RP7), 6-Phenyl[5H]pyrrolo[2,3-b]pyrazine] shows IC50 equal to 4 µM

----------
- System: CDK1/cyclin B
- Method notes: CDK1/cyclin B kinase assay (histone H1, 15 μM ATP)
- Protocol conditions: 15 μM ATP, Table 1
Counter-ions that a name gives are not always drawn.
# reported IC50; entries follow

Worked set:
# Compound, Result
data = [
    ("COc1ccc(-c2c(C)c3nccnc3n2C2CC2)cc1 [42 (RP104)]", "1000 nM"),
    ("Cc1cnc2cc(-c3ccccc3)[nH]c2n1 [8 (RP18)]", "69000 nM"),
    ("Cc1c(-c2ccc(OS(=O)(=O)N(C)C)cc2)[nH]c2nccnc12 [31 (RP125)]", "700 nM"),
    ("c1ccc2c(-c3cc4nccnc4[nH]3)cccc2c1 [6 (RP17), 6-(1-Naphtyl) [5H]pyrrolo[2,3-b]pyrazine]", "> 100000 nM"),
    ("COc1ccc(-c2c(C)c3nccnc3n2C2CCCCC2)cc1 [46 (RP98)]", "5000 nM"),
    ("CCCc1c(-c2ccc(OC)cc2)[nH]c2nccnc12 [32 (RP127)]", "400 nM"),
]

The compound listed as Clc1cc(Cl)cc(-c2cc3nccnc3[nH]2)c1 [20 (RP15)] shows IC50 equal to > 100000 nM

The compound listed as Clc1ccc(-c2cc3nccnc3[nH]2)cc1 [19 (RP14)] shows IC50 equal to 1800 nM

The compound listed as CN(C)c1ccc(-c2cc3nccnc3[nH]2)cc1 [26 (RP129)] shows IC50 equal to 20000 nM

The compound listed as COc1ccc(-c2[nH]c3nccnc3c2C)cc1OC [29 (RP123)] shows IC50 equal to 1100 nM

The compound listed as Oc1ccc(-c2[nH]c3nccnc3c2CC2CC2)cc1 [43 (RP112), hydrobromide] shows IC50 equal to 50000 nM
